- ASSAYED SYSTEM: human cannabinoid CB2 receptor (Homo sapiens)
- Construct: expressed in transfected cells; host or cells: Saccharomyces cerevisiae strain MMY23 (cassette integrated at the ura3 locus, GPD promoter)
- Sequence (P34972 whole entry): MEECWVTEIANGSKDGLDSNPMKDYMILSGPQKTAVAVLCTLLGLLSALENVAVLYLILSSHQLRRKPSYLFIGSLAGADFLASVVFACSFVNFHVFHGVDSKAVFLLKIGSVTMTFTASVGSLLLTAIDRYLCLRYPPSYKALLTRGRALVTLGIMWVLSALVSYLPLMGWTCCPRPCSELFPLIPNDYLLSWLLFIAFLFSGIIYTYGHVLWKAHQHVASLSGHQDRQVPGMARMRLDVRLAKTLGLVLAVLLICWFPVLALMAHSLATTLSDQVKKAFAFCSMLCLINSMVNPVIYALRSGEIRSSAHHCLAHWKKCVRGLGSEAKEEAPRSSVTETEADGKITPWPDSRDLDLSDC
- ASSAY COMMENT: Cannabinoid CB2 receptor agonist activity in yeast cells (FDGlu fluorescence)
- Assay type: cell-based
- Procedure: The cannabinoid CB2 receptor agonist activity of the compounds of formula (I) was determined in accordance with the following experimental method. […] Agonists were prepared as 10 mM stocks in DMSO. […] Fluorescence was plotted against compound concentration and iteratively curve fitted using a four parameter fit to generate a concentration effect value. Efficacy (Emax) was calculated from the equation Equieffective molar ratio (EMR) values were calculated from the equation
Structures can show the parent of a compound that is named as a salt.
Below is a list of entries, each paired with its recorded EC50 value.

Take a look at these entries with their results.
EC50 value, target or system human cannabinoid CB2 receptor (Homo sapiens), for CC(C)c1cc(Nc2cccc(Cl)c2)ncc1CNCC1CCCC1 [Example 50] : < 300 nM

EC50 value, target or system human cannabinoid CB2 receptor (Homo sapiens), for CC(C)c1cc(Nc2ccc(F)cc2Cl)ncc1CNCC1CCC1 [Example 24] : 300 to 1000 nM

EC50 value, target or system human cannabinoid CB2 receptor (Homo sapiens), for Cc1cc(Cl)ccc1Nc1cc(C(C)C)c(CNCC2CCC2)cn1 [Example 27] : 300 to 1000 nM

EC50 value, target or system human cannabinoid CB2 receptor (Homo sapiens), for Clc1cccc(Nc2cc(C3CC3)c(CNCC3CC3)cn2)c1 [Example 3, acetate] : < 300 nM

Next:
EC50 value, target or system human cannabinoid CB2 receptor (Homo sapiens), for Clc1cccc(Nc2cc(C3CC3)c(CNCC3CCCC3)cn2)c1 [Example 62, di-Hydrochloride] : < 300 nM

EC50 value, target or system human cannabinoid CB2 receptor (Homo sapiens), for CCCNCc1cnc(Nc2cccc(Cl)c2)cc1C1CC1 [Example 55, dihydrochloride] : < 300 nM

EC50 value, target or system human cannabinoid CB2 receptor (Homo sapiens), for CC(C)c1cc(Nc2cccc(Cl)c2)ncc1CNCC1CC1 [Example 22] : < 300 nM

EC50 value, target or system human cannabinoid CB2 receptor (Homo sapiens), for CC(C)CNCc1cnc(Nc2ccc(Cl)cc2Cl)cc1C(C)C [Example 23] : < 300 nM

EC50 value, target or system human cannabinoid CB2 receptor (Homo sapiens), for Cc1ccc(Nc2cc(C(C)C)c(CNCC3CC3)cn2)cc1Cl [Example 33] : 300 to 1000 nM

Data origin, for the record: patent US20080280868A1
